Origin of the recorded values: ChEMBL document CHEMBL3352261

- studyTarget: UniProt:P10635
- Sequence (P10635 whole entry): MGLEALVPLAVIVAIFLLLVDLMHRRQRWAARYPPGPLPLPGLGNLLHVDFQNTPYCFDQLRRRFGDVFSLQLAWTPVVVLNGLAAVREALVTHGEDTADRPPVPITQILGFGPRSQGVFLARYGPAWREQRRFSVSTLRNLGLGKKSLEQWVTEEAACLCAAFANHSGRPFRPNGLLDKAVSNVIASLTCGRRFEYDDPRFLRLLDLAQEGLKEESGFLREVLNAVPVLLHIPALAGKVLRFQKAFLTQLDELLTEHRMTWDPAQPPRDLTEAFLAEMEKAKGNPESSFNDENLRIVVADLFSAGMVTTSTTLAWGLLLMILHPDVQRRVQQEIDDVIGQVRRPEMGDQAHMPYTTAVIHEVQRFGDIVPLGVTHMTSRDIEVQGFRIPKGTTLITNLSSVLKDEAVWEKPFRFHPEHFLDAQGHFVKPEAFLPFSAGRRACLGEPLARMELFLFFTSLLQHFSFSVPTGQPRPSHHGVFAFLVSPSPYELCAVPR
quantityName: IC50
Just the number plus its unit, please.

Note to self: IC50 of CCc1ccccc1C(C(=O)Nc1ccc2[nH]nc(-c3cccc(S(N)(=O)=O)c3)c2c1)N(C)C (racemic) with UniProt:P10635 was 5 µM

* * *

- protocolNotes: AUC in SCID mouse at 25 mg/kg, po
- Type: ADME, organism-based
- Design: dose 25 mg/kg, route oral
- experimentalSetup: plasma
quantityName: AUC (ng·h/mL)
Express the result in ng·h/mL but write the number alone.

# compound CCc1ccccc1C(C(=O)Nc1ccc2[nH]nc(-c3cccc(S(N)(=O)=O)c3)c2c1)N(C)C (racemic) ; its AUC = 140
